# Test system: L1210 leukemia ip in BDF1 mice, survival T/C
# test.protocol: NCI In Vivo Anticancer Drug Screen. Data for tumor model L1210 Leukemia (intraperitoneal) in B6D2F1 (BDF1) mice
# run.parameters: endpoint: mean survival time; dose: 75.0 mg/kg/injection; schedule: Q01DX001 (ip); vehicle: saline; higher = longer survival
Toxic doses and inconclusive results are not listed. Peptide text beside a SMILES is read from it. * marks the point of attachment. Boc = CC(C)(C)OC(=O)*
In this section, each of the molecules is paired with its reported T/C.
assay.metric: T/C

{"columns": ["molecule", "target.of.assay", "assay.metric", "result"],
 "data": [
  ["CCCC(C)C1(CCC)C(=O)NC(=S)NC1=O (stereo not drawn)", "L1210 leukemia ip in BDF1 mice, survival T/C", "T/C", "94 % of control"],
  ["CCCCOC(=O)c1ccc2c(ccc[n+]2C)c1", "L1210 leukemia ip in BDF1 mice, survival T/C", "T/C", "95 % of control"],
  ["CN1CC(N(C)C)CCC/C=C\\C1=O (stereo not drawn)", "L1210 leukemia ip in BDF1 mice, survival T/C", "T/C", "102 % of control"],
  ["C/C=C/CC1(CCC)C(=O)NC(=O)NC1=O", "L1210 leukemia ip in BDF1 mice, survival T/C", "T/C", "100 % of control"],
  ["COC(=O)N1C2CC=C(C)CC21 (stereo not drawn)", "L1210 leukemia ip in BDF1 mice, survival T/C", "T/C", "94 % of control"],
  ["CCCC(C(=O)OCCNC1CCCCC1)c1ccccc1 (stereo not drawn)", "L1210 leukemia ip in BDF1 mice, survival T/C", "T/C", "104 % of control"],
  ["C=C(C)C1(Cc2ccccc2)C(=O)NC(=O)NC1=O", "L1210 leukemia ip in BDF1 mice, survival T/C", "T/C", "98 % of control"],
  ["Cc1cc(Br)c(N(C=O)N=O)c(Br)c1", "L1210 leukemia ip in BDF1 mice, survival T/C", "T/C", "101 % of control"],
  ["CC1CC(Cc2cccc3ccccc23)C(=O)O1 (stereo not drawn)", "L1210 leukemia ip in BDF1 mice, survival T/C", "T/C", "97 % of control"],
  ["NC(CCCNc1nc(O)c(-c2ccccc2)c(=O)[nH]1)C(=O)O (stereo not drawn)", "L1210 leukemia ip in BDF1 mice, survival T/C", "T/C", "104 % of control"],
  ["CCCCCCOP(=O)(N1CC1)N1CC1", "L1210 leukemia ip in BDF1 mice, survival T/C", "T/C", "267 % of control"],
  ["COC(=O)CNC(=O)C(CC(C)C)NC(=O)C(CC(C)C)NC(=O)OC(C)(C)C (stereo not drawn) (Boc-Leu-Leu-Gly-OMe; configuration not given here)", "L1210 leukemia ip in BDF1 mice, survival T/C", "T/C", "106 % of control"],
  ["O=C1/C(=C/c2ccccc2)CCC2C1CCCC21OCCO1 (stereo not drawn)", "L1210 leukemia ip in BDF1 mice, survival T/C", "T/C", "97 % of control"]
]}

* * *

# Tested on: L1210 leukemia ip in BDF1 mice, survival T/C
# test.protocol: NCI In Vivo Anticancer Drug Screen. Data for tumor model L1210 Leukemia (intraperitoneal) in B6D2F1 (BDF1) mice
# run.parameters: endpoint: mean survival time; dose: 100.0 mg/kg/injection; schedule: Q04DX003 (ip); vehicle: gum acacia; higher = longer survival
Toxic doses and inconclusive results are not listed.
In this section, each of the compounds is paired with its reported T/C.

{"columns": ["compound", "T/C"],
 "data": [
  ["CN(NC(=O)CC(=O)NN(C)C(=S)c1ccc(Cl)cc1)C(=S)c1ccc(Cl)cc1", "90 % of control"],
  ["ClC1=C(Cl)C2(Cl)C(c3ccccc3)=CC1(Cl)C2(Cl)Cl (stereo not given)", "114 % of control"],
  ["S=C1NC(c2ccc(Cl)cc2)N2C(=S)NC(c3ccc(Cl)cc3)N12 (stereo not given)", "104 % of control"],
  ["CCOC(=O)C(C)NC(=O)C(C)NC(=O)OCc1ccccc1 (stereo not given)", "103 % of control"],
  ["C=COC(=O)N1c2ccc(C)cc2C=CC1C#N (stereo not given)", "92 % of control"]
]}

Origin of values: PubChem BioAssay AID248
